Hi there, I'd appreciate the recorded Hepatotoxicity (moderate) for every entry that follows.
ASSAY PROTOCOL: Highest frequency of moderate liver toxicity observed during clinical trials, expressed as a percentage. [column '% BIOL' in source]
CONDITIONS USED: human
Where a SMILES comes first, the peptide text is derived from it. Bridges are numbered along the chain shown (N, C = ends). [ ]: non-standard residue; d: D form. The star is where a group is joined. NMePhe(4-NMe2) = CN[C@@H](Cc1ccc(N(C)C)cc1)C(=O)O; Pip(4-oxo) = O=C1CCN[C@H](C(=O)O)C1; Picolinoyl(3-OH) = O=C(c1ncccc1O)*; Phg = N[C@H](C(=O)O)c1ccccc1; dAbu = CC[C@@H](N)C(=O)O
Report only the number, with the unit % understood.

Per the record, `O=C(NCCN1CCN(c2cccc3c2OC[C@H](CO)O3)CC1)c1ccc(F)cc1` has Hepatotoxicity (moderate) of 12.5

For CNC1(c2ccccc2Cl)CCCCC1=O (stereo not given) the compound record lists Hepatotoxicity (moderate) as 23.5

Recorded Hepatotoxicity (moderate) (compound `CO/N=C(\C(=O)N[C@@H]1C(=O)N2C(C(=O)O)=C(CSc3nc(C)c(CC(=O)O)s3)CS[C@H]12)c1csc(N)n1` ): 44.4

Consider `CS(=O)(=O)OCCCCOS(C)(=O)=O` . Its measured Hepatotoxicity (moderate) is 100

// field: Hepatotoxicity (moderate); key: `CN1CCC[C@@H]1CCO[C@](C)(c1ccccc1)c1ccc(Cl)cc1` ; value = 0.7

Record `Cc1ncc(-c2csc(N=C(N)N)n2)[nH]1` . Reported Hepatotoxicity (moderate): 94

Entry `CC(C)c1nc(N(C)S(C)(=O)=O)nc(-c2ccc(F)cc2)c1/C=C/[C@@H](O)C[C@@H](O)CC(=O)O` , Hepatotoxicity (moderate) reported as 0

Value of measured Hepatotoxicity (moderate) for the entry COc1c(N2CCNC(C)C2)c(F)cc2c(=O)c(C(=O)O)cn(C3CC3)c12 (stereo not given) : 6.5

Lookup result for `CNC=O` ; measured Hepatotoxicity (moderate): 75

The compound `O=C1Nc2ccccc2C1(c1ccc(O)cc1)c1ccc(O)cc1` showed Hepatotoxicity (moderate) equal to 0

Query NCC1CC(=O)N(Cc2ccccc2)C1 (stereo not given) yields Hepatotoxicity (moderate) of 11.1

Just so you know, measured Hepatotoxicity (moderate) for COc1c(C)c2c(c(O)c1C/C=C(\C)CCC(=O)OCCN1CCOCC1)C(=O)OC2 [MYCOPHENOLATE MOFETIL] came out at 33.3

Entry under test: `CS[C@H]1SC[C@H]2C(=O)N(C)[C@@H](C(C)C)C(=O)OC[C@@H](NC(=O)c3cnc4ccccc4n3)C(=O)N[C@@H](C)C(=O)N(C)[C@@H]1C(=O)N(C)[C@@H](C(C)C)C(=O)OC[C@@H](NC(=O)c1cnc3ccccc3n1)C(=O)N[C@@H](C)C(=O)N2C` . Its Hepatotoxicity (moderate) was 29.4

So, `C1CC1` ? Its Hepatotoxicity (moderate) was 0

Entry O=C1CCC(N2C(=O)c3ccccc3C2=O)C(=O)N1 (stereo not given) [THALIDOMIDE] , Hepatotoxicity (moderate) reported as 5.6

response.value for NCCCC(N)(C(=O)O)C(F)F (stereo not given) (field: Hepatotoxicity (moderate)) = 0

Reported Hepatotoxicity (moderate) of `CC(=O)c1ccc2c(c1)N(CCCN1CCC(CCO)CC1)c1ccccc1S2` : 39

The compound identified as CC(C)[C@](O)(C(=O)OCC1=CC[N+]2([O-])CC[C@@H](O)[C@@H]12)[C@H](C)O (stereo not given in full) [INDICINE N-OXIDE] registered its Hepatotoxicity (moderate) at 62.5

Measured Hepatotoxicity (moderate), CC(=O)OCC(=O)[C@@]1(O)CC[C@H]2[C@@H]3CCC4=CC(=O)C=C[C@]4(C)[C@@]3(F)[C@@H](O)C[C@@]21C [ISOFLUPREDONE ACETATE] : 0

Measured Hepatotoxicity (moderate), COc1ccnc(C[S+]([O-])c2nc3ccc(OC(F)F)cc3[nH]2)c1OC (stereo not given) : 8.3

Looking up CC(C)=CCC/C(C)=C/CC/C(C)=C/CCC(=O)OC/C=C(\C)CCC=C(C)C [GEFARNATE] , I found its Hepatotoxicity (moderate) recorded as 1

response.value for `O=c1oc2ccccc2c(O)c1Cc1c(O)c2ccccc2oc1=O` (field: Hepatotoxicity (moderate)) = 0

Looking up CC[C@H]1NC(=O)[C@@H](NC(=O)c2ncccc2O)[C@@H](C)OC(=O)[C@H](c2ccccc2)NC(=O)[C@@H]2CC(=O)CCN2C(=O)[C@H](Cc2ccc(N(C)C)cc2)N(C)C(=O)[C@@H]2CCCN2C1=O [PRISTINAMYCIN 1A] ({Picolinoyl(3-OH)}-T[dAbu]P[NMePhe(4-NMe2)][Pip(4-oxo)][Phg]; ester 1-C) , I see its Hepatotoxicity (moderate) listed as 0

Please fill in: Hepatotoxicity (moderate) reported for `CCN1CCN(C(=O)N[C@@H](C(=O)N[C@@H]2C(=O)N3[C@@H]2SC(C)(C)[C@@H]3C(=O)O)c2ccccc2)C(=O)C1=O` = 25.6

Sample `CCOC(=O)C1=C[C@@H](OC(CC)CC)[C@H](NC(C)=O)[C@@H](N)C1` ; Hepatotoxicity (moderate) observed: 0

Memo: `CCn1cc(C(=O)O)c(=O)c2cc(F)c(N3CCNCC3)nc21` , reported Hepatotoxicity (moderate): 3.3

Looking up `C[C@H](CSC(=O)c1ccccc1)C(=O)N1C[C@@H](Sc2ccccc2)C[C@H]1C(=O)O` , I see its Hepatotoxicity (moderate) listed as 5.3

Item: `c1cnc(N2CCN(Cc3ccc4c(c3)OCO4)CC2)nc1` | Hepatotoxicity (moderate): 10

Just so you know, measured Hepatotoxicity (moderate) for `NC(=O)CC[C@@H]1NC(=O)[C@H](Cc2ccccc2)NC(=O)[C@H](Cc2ccc(O)cc2)NC(=O)CCSSC[C@@H](C(=O)N2CCC[C@H]2C(=O)N[C@H](CCCN=C(N)N)C(=O)NCC(N)=O)NC(=O)[C@H](CC(N)=O)NC1=O` came out at 20

Hepatotoxicity (moderate) in this record for `O=C(OC[C@H]1O[C@@H](OC(=O)c2cc(O)c(O)c(OC(=O)c3cc(O)c(O)c(O)c3)c2)[C@H](OC(=O)c2cc(O)c(O)c(OC(=O)c3cc(O)c(O)c(O)c3)c2)[C@@H](OC(=O)c2cc(O)c(O)c(OC(=O)c3cc(O)c(O)c(O)c3)c2)[C@@H]1OC(=O)c1cc(O)c(O)c(OC(=O)c2cc(O)c(O)c(O)c2)c1)c1cc(O)c(O)c(OC(=O)c2cc(O)c(O)c(O)c2)c1` : 0
